# ASSAY_SYSTEM: T1, anti-HRP antibody
# T1 construct: also called anti-HRP antibody 10
# TEST_NAME: SPR, anti-HRP antibody immobilized on gold chip, peptide at 20 µM
No end group written: not given here.
Below, each of the binders is paired with its reported SPR signal value.
All answers are understood in RU, so give the number only.

* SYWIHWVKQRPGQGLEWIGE (also: fluorescence label in fluorescence assays, dye and place not given here, also called PEPTIDE 1) [switching binder of SEQ ID NO. 1 (H1)] | 121
* VYYCFQGSHVPFTK (also: fluorescence label in fluorescence assays, dye and place not given here, also called PEPTIDE 4) [switching binder of SEQ ID NO. 4 (L2)] | 418
* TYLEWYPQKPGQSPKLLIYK (also: fluorescence label in fluorescence assays, dye and place not given here, also called PEPTIDE 3) [switching binder of SEQ ID NO. 3 (L1)] | 40.4

Next, consider the following binder.
Need SPR signal, item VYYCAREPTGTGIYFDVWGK (also: fluorescence label in fluorescence assays, dye and place not given here, also called PEPTIDE 2) [switching binder of SEQ ID NO. 2 (H2)]
192
